# Assay Explanation: Oral bioavailability in rat
# Type: ADME, organism-based
# Assay Setup: in vivo
Assay Readout: bioavailability (%)

Molecule | bioavailability [%]
CC1(C)Oc2ccc(C#N)cc2[C@@H](NC(=NC#N)Nc2ccc(Cl)cc2)[C@@H]1O | 61
CC1(C)Oc2ccc(C#N)cc2[C@@H](/N=C(\NC#N)Nc2ccccc2)[C@@H]1O (stereo in doubt; 12) | 70
CC1(C)Oc2ccc(C#N)cc2[C@@H](/N=C(\NC#N)Nc2ccc(F)cc2)[C@@H]1O | 64

---

# Species: Rattus norvegicus
# Assay Explanation: Vasorelaxant potency determined by inhibition of methoxamine-contracted rat aorta
# Format: functional
# Assay Setup: Rattus norvegicus, Aorta
pIC50: −log10 of the molar value.
Assay Readout: pIC50

A = C#Cc1ccc2c(c1)[C@@H](/N=C(\NC#N)Nc1ccccc1)[C@H](O)C(C)(C)O2
B = CC1(C)Oc2ccc(C#N)cc2[C@@H](/N=C(\S)Nc2ccccc2)[C@@H]1O
C = CC1(C)Oc2ccc(C#N)cc2C(N2CCCC2=O)C1O (centres undefined) [CROMAKALIM]
From the items above, give an ordering by pIC50 that starts at the lowest reported number. Output spec: a listing of the labels in the requested order.
A, B, C
(A: 5.27, B: 5.77, C: 7.49)

1 = CC1(C)Oc2ccc(C#N)cc2[C@@H](/N=C(\NC#N)Nc2ccc(Cl)cc2)[C@@H]1O
2 = CC1(C)Oc2ccc(C#N)cc2[C@@H](/N=C(\NC#N)Nc2ccc(C(F)(F)F)cc2)[C@@H]1O
3 = CC1(C)Oc2ccccc2[C@@H](/N=C(\NC#N)Nc2ccccc2)[C@@H]1O
Arrange items by their pIC50 values in increasing order. Return value: ordered labels per request.
3, 2, 1
(3: 4.14, 2: 5.09, 1: 5.74)
